Target: Fatty acid synthase (Homo sapiens) (UniProt P49327)
Sequence (P49327 whole entry, looked up, the tested form may be a part): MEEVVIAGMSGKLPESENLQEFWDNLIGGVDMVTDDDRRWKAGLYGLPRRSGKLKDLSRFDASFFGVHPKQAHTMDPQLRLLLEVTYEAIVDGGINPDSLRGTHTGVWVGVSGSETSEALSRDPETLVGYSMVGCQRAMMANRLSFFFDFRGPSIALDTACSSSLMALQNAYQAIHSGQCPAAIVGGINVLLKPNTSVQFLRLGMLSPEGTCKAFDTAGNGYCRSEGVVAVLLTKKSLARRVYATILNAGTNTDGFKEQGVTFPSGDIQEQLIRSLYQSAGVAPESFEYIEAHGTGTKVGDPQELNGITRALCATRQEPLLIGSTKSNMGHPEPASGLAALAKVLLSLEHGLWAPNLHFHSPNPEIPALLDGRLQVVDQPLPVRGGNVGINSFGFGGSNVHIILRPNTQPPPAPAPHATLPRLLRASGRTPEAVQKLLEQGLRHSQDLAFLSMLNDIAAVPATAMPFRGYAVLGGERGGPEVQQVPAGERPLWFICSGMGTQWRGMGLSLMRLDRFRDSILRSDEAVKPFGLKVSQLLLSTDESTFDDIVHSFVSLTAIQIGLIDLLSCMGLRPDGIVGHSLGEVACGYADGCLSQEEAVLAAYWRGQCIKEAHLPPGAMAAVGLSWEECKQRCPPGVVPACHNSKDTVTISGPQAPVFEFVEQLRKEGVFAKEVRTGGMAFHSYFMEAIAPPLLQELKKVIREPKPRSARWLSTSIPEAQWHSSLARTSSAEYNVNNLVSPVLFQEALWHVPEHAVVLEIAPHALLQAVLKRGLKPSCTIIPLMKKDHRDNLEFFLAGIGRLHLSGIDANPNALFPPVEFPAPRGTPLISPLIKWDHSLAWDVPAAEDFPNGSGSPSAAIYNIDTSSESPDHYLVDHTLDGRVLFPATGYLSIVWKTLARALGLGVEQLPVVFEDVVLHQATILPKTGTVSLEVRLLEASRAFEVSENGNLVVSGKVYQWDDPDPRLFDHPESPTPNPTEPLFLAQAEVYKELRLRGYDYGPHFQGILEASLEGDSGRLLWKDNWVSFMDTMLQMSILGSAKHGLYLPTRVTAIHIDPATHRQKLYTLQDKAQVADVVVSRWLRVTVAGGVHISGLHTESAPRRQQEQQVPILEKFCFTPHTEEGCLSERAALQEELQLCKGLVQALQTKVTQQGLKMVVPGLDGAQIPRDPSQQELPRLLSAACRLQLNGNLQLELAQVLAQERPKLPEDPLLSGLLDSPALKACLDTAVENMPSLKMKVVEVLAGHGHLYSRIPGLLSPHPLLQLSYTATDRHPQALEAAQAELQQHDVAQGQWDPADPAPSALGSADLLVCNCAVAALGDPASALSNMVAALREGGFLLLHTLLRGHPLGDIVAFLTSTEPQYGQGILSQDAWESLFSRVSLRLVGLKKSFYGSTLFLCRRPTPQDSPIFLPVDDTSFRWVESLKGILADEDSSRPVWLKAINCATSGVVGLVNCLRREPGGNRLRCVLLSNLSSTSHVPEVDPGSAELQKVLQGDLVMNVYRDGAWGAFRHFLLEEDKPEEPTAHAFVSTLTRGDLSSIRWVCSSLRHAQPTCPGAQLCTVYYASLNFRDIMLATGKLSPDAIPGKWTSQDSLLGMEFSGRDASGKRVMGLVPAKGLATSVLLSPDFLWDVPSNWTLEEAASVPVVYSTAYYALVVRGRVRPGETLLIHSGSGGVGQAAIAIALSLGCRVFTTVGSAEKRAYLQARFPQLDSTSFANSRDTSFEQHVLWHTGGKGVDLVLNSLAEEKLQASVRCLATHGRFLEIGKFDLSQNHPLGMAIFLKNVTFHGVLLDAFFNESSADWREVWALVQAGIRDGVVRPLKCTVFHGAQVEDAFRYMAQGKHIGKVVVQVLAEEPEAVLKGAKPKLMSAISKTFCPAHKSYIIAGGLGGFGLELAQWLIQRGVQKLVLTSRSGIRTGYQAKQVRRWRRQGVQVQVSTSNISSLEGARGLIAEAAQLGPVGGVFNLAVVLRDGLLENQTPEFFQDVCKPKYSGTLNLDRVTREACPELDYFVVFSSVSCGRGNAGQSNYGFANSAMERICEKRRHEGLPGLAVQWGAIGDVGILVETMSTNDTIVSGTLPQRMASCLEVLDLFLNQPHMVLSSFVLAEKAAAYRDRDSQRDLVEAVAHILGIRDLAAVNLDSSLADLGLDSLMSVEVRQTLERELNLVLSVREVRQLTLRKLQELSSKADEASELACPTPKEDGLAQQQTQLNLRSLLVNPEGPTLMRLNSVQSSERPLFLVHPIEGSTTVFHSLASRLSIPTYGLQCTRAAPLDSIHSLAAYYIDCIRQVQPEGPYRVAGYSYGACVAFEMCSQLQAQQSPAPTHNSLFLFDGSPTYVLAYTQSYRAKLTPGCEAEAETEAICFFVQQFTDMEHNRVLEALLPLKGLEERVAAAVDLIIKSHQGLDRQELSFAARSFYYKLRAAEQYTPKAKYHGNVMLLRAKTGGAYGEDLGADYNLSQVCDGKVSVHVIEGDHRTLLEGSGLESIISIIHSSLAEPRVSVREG
Test: FAS thioesterase domain inhibitors, SAR follow-up, biochemical, endpoint fluorescence intensity, powder samples (AID 652164)
Details: recombinant FAS-TE, OMFH substrate fluorescence
pIC50: −log10 of the molar value.
Recorded Endpoint: pIC50

Sample records with pIC50:
>  <Compound String>
CCC(=O)Nc1nc(-c2ccc(S(=O)(=O)N(CC)CC)cc2)cs1

>  <pIC50>
5.37

$$$$
>  <Compound String>
CC1CCN(S(=O)(=O)c2ccc(-c3csc(NC(=O)C(C)C)n3)cc2)CC1

>  <pIC50>
6.18

$$$$
>  <Compound String>
CCCCC(=O)Nc1nc(-c2ccc(S(=O)(=O)N3CCC(C)CC3)cc2)cs1

>  <pIC50>
6.30

$$$$

(I) CC(C)C(=O)Nc1nc(-c2ccc(S(=O)(=O)N3CCCC3)cc2)cs1
(II) CCN(CC)S(=O)(=O)c1ccc(-c2csc(NC(=O)C3CCCCC3)n2)cc1
Query: // compare: I vs II , metric pIC50, want the smaller # respond with the chosen item's label
Result: II
